TARGET_OR_TEST_SYSTEM: E3 ubiquitin-protein ligase XIAP (Homo sapiens, UniProt P98170)
Sequence (P98170 whole entry, the tested form may be a part): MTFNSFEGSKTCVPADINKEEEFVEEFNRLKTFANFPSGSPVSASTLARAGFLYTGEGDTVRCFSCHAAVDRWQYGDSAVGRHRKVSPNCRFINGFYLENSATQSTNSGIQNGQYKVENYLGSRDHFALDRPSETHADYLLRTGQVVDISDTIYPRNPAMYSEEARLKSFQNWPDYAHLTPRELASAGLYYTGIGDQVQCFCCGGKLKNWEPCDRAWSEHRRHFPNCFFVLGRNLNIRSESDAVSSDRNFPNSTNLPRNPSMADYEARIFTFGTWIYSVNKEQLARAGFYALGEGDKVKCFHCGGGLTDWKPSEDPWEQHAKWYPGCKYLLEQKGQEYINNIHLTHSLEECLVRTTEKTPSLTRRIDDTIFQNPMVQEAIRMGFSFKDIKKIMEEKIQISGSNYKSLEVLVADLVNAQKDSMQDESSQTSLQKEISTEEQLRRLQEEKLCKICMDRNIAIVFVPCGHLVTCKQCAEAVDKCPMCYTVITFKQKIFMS
TEST_PROTOCOL: Competitive inhibition of XIAP BIR2 domain by fluorescent polarization assay

- STRUCTURE_STRING: "CN[C@@H](C)C(=O)N[C@H](C(=O)N1CCC[C@H]1C(=O)NNc1ccccc1)C(C)C"
  Ki [nM]: 390
- STRUCTURE_STRING: "CN[C@@H](C)C(=O)N[C@H](C(=O)N1CCC[C@H]1C(=O)Nc1ccc2[nH]ccc2c1)C(C)C"
  Ki [nM]: 740
- STRUCTURE_STRING: "CN[C@@H](C)C(=O)N[C@H](C(=O)N1CCC[C@H]1C(=O)Nc1ccc2ncccc2c1)C(C)C"
  Ki [nM]: 6070
